Reported growth inhibition values are given for each entry in this list.
# method: NCI Yeast Anticancer Drug Screen. Data for the wt1 strain (AID 149);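 also: 0% = growth of vehicle-treated wt1 cultures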
# run_parameters: S. cerevisiae wt1 strain (SPY 50644) growth inhibition; at 100.0 µM; stronger effect = higher value
About 79,000 compounds went through this panel and 15% of them were active in at least one assay; those are over-represented in the sample as a whole.
Your answer is read as %, so omit the unit and give the number.

Solved entries:
                                   compound  measured_result
0            CN(C)c1nc2sc3c(c2c(=O)o1)CCCC3               32
1        [O-][n+]1c2ccc(O)cc2nc2ccc(Cl)cc21               53
2  O=C1c2ccccc2C(=O)c2c(NC3CCCCC3)ccc(Nc3ccc(S(=O)(=O)O)cc3)c21               33

Query: Which growth inhibition is reported for this compound? CSc1nc(=S)[nH]c2c1c(C)nn2-c1ccccc1
Response: 1

Query: Which growth inhibition is reported for this compound? Brc1ccc(-c2cc3c(cc2C2SCCS2)OCO3)cc1
Response: -7

Query: Which growth inhibition is reported for this compound? CCN(CC)[P+](c1ccccc1O)(N(CC)CC)N(CC)CC
Response: 84

Query: Which growth inhibition is reported for this compound? CNC(=O)OCc1c(COC(=O)NC)c(-c2ccc(Cl)c(Cl)c2)n2c1CCC2
Response: 98

Query: Which growth inhibition is reported for this compound? Cn1c(=O)c2ccccc2c2ccccc21
Response: 21

###

# method: NCI Yeast Anticancer Drug Screen. Data for the mec2-1 strain (AID 157)
# run_parameters: S. cerevisiae mec2-1 strain, at 3.7 µM, stronger effect = higher value
This is part of a sample that, as a whole, favours compounds with a hit. Of some 79,000 tested, about 15% had one in any assay.
result_type: growth inhibition (%)
Your answer is read as %, so omit the unit and give the number.

Solved entries:
>>> df
                                   molecule        result_type  measured_result
0                          NC(=O)NN=C(CS)CS  growth inhibition                0
1  COC(=O)C1=C(C)NC(C)=C(C(=O)OCCCN2CCC(c3ccccc3)(c3ccccc3)CC2)C1c1cccc([N+](=O)[O-])c1 (stereo not drawn)  growth inhibition               16
2  CC(=O)OC1CCC2(C)C(=CCC3C4CCC5(OC6CC(C)CN(C(C)=O)C6C5C)C(C)=C4C(=O)C32)C1 (stereo not drawn)  growth inhibition              -32
3  C(CCSC1=NCCN1)CSC1=NCCN1 (tested in a mixture with another compound)  growth inhibition               28
4          CCCC/C=C/C(CC)(C(=O)OCC)C(=O)OCC  growth inhibition               -1

Query: Which growth inhibition is reported for this molecule? COC(=O)C1=C(C(=O)OC)C2(C)C=CC1O2 (stereo not drawn)
Response: -1

Query: Which growth inhibition is reported for this molecule? O=C1C=CC(=O)c2c(O)c(Nc3ccc(OC(F)(F)F)cc3)c(Cl)c(O)c21
Response: -3

Query: Which growth inhibition is reported for this molecule? COc1ccc(C2c3cc4c(cc3OC(C)(O)C2C)OCO4)c(OC)c1 (stereo not drawn)
Response: 8

###

Reported growth inhibition values are given for each entry in this list.
# method: NCI Yeast Anticancer Drug Screen. Data for the wt2 strain (AID 169);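 also: 0% = growth of vehicle-treated yeast cultures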
# run_parameters: S. cerevisiae wt2 strain growth inhibition; at 3.7 µM; stronger effect = higher value
About 79,000 compounds went through this panel and 15% of them were active in at least one assay; those are over-represented in the sample as a whole. Activity calls are given as the source filed them. Cut-off read from the data, not from the text of the source: active = growth inhibition above about 70%; inactive = the rest.

>>> print(df.to_string())
                                   compound        result_type  measured_result
0  Cc1c(C2=C(Br)C(=O)N(C)C2=O)c(=O)n(C)c(=O)n1C  growth inhibition    3% (inactive)
1  COP(=O)(OC)/C(=C\C1=CN(C(c2ccccc2)(c2ccccc2)c2ccccc2)CN1)NC=O  growth inhibition  -13% (inactive)

Query: Which growth inhibition is reported for this compound? C/C(=N\NC(=S)SCc1ccccc1)c1ccccn1
Response: -25% (inactive)

Query: Which growth inhibition is reported for this compound? CC[C@@]1(O)C(=O)OCc2c1cc1n(c2=O)Cc2cc3c(N)cccc3nc2-1
Response: -9% (inactive)

Query: Which growth inhibition is reported for this compound? S=C(Nc1ccc(Cl)c(Cl)c1)SCc1ccc2c(c1)OCO2
Response: 90% (active)

Query: Which growth inhibition is reported for this compound? CC(C)/C(Cl)=N\OC(=O)Nc1cccc(Cl)c1
Response: -3% (inactive)

###

# method: NCI Yeast Anticancer Drug Screen. Data for the rad18 strain (AID 177)
# run_parameters: S. cerevisiae rad18 mutant growth inhibition; at 1.2 µM; stronger effect = higher value
# Procedure: Growth inhibition of yeast strains with defined genetic alterations is measured as a screen for potential anti-cancer activity. Selected strains with alterations in DNA damage repair or cell cycle control were exposed to compounds and growth inhibition was measured relative to vehicle treated controls. The strain used in this assay is rad18
About 79,000 compounds went through this panel and 15% of them were active in at least one assay; those are over-represented in the sample as a whole. The source made the active and inactive calls. Cut-off read from the data, not from the text of the source: active = growth inhibition above about 70%; inactive = the rest.
Reported growth inhibition values are given for each entry in this list.

Solved entries:
>>> df
                                   compound        result_type  measured_result
0  Cc1c(C2=C(Br)C(=O)N(C)C2=O)c(=O)n(C)c(=O)n1C  growth inhibition   17% (inactive)
1              Cc1ccc(CSC(N)=Nc2ccccc2)cc1C  growth inhibition    6% (inactive)
2  CC1C(NNc2ccccc2)Oc2cc3c(cc2C1c1ccccc1O)OCO3 (centres undefined)  growth inhibition   12% (inactive)

Query: Which growth inhibition is reported for this compound? Cc1cc(CO)c(O)c(CNCc2cc(C)cc(CO)c2O)c1
Response: 1% (inactive)

###

# method: NCI Yeast Anticancer Drug Screen. Data for the rad18 strain (AID 177)
# run_parameters: S. cerevisiae rad18 mutant growth inhibition; at 100.0 µM; stronger effect = higher value
This is part of a sample that, as a whole, favours compounds with a hit. Of some 79,000 tested, about 15% had one in any assay.
Reported growth inhibition values are given for each entry in this list.
Your answer is read as %, so omit the unit and give the number.

Solved entries:
In [3]: df
Out[3]:
                                   compound        result_type  measured_result
0       NC(=NCc1ccccc1)N/N=C\c1ccnc2ccccc12  growth inhibition               28
1  CC(=O)OC1CCC2(C)C(=CCC3C4CCC5(OC6CC(C)CN(C(C)=O)C6C5C)C(C)=C4C(=O)C32)C1 (stereo not given)  growth inhibition               95
2                  CC(=O)OCc1ccc(O)c(C=O)c1  growth inhibition               89
3                       Oc1cccc2c(Cl)ccnc12  growth inhibition               97

Proceed to the following item.
Query: Which growth inhibition is reported for this compound? Cc1ccc(S(=O)(=O)NNC(=S)Nc2cccc3ccccc23)cc1
Response: 12

###

Reported growth inhibition values are given for each entry in this list.
# method: NCI Yeast Anticancer Drug Screen. Data for the rad14 strain (AID 159);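 also: 0% = growth of vehicle-treated control cultures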
# run_parameters: S. cerevisiae rad14 strain growth inhibition; at 3.7 µM; stronger effect = higher value
This is part of a sample that, as a whole, favours compounds with a hit. Of some 79,000 tested, about 15% had one in any assay.
Your answer is read as %, so omit the unit and give the number.

                                   molecule  measured_result
0  CCCCCCCCCCCCCC[N+](C)(CC(=O)[O-])Cc1ccccc1 (stereo unspecified)               30
1  CC[n+]1ccc2c(C)c3[nH]c4ccc(O)cc4c3c(C)c2c1              -10
2          CCCC/C=C/C(CC)(C(=O)OCC)C(=O)OCC               -5
3                O=C(c1ccc(Cl)cc1Cl)C(Cl)Cl              -25

Query: Which growth inhibition is reported for this molecule? CC(C)NC(=O)OCc1c(COC(=O)NC(C)C)c(-c2ccc(Cl)c(Cl)c2)n2c1CCC2
Response: -26

Query: Which growth inhibition is reported for this molecule? CCCCCCCCCCC(=O)Cl
Response: -2

Query: Which growth inhibition is reported for this molecule? C=CC(C)(O)CCC1C(=C)C(O)CC2C(C)(C)CCCC12C (stereo unspecified)
Response: -20

###

Reported growth inhibition values are given for each entry in this list.
# method: NCI Yeast Anticancer Drug Screen. Data for the wt1 strain (AID 149);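 also: 0% = growth of vehicle-treated wt1 cultures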
# run_parameters: S. cerevisiae wt1 strain (SPY 50644) growth inhibition; at 3.7 µM; stronger effect = higher value
This is part of a sample that, as a whole, favours compounds with a hit. Of some 79,000 tested, about 15% had one in any assay.
Your answer is read as %, so omit the unit and give the number.

Solved entries:
>>> df
                                   compound  units_text  measured_result
0               O=[N+]([O-])c1ccc(=S)[nH]c1           %               -2
1  CCc1ncnc2cc(OCC3CO3)c(OC)cc12 (stereo not drawn)           %                8
2           CN(C)c1ccc(C(C#N)=C(C#N)C#N)cc1           %               -5
3  Clc1ccccc1C1OC1c1ccccc1Cl (stereo not drawn)           %              -49
4              Cc1ccc(CSC(N)=Nc2ccccc2)cc1C           %               13
5  CCS(=O)(=O)c1ccc(/C=C/C=N/NC(=S)NCC(C)C)cc1           %               -3
6  COc1ccc(C2c3cc4c(cc3OC(C)(O)C2C)OCO4)c(OC)c1 (stereo not drawn)           %                3
7  C[C@H](CCC(=O)NN)[C@H]1CC[C@H]2[C@@H]3CC[C@@H]4C[C@H](O)CC[C@]4(C)[C@H]3CC[C@]12C           %                0

Query: Which growth inhibition is reported for this compound? CC(=O)Nc1ccc(SC(C)=O)cc1
Response: -30

Query: Which growth inhibition is reported for this compound? CC1OCC2OC(C)OC(C3C4=C(CC(C)(C)CC4=O)OC4=C3C(=O)CC(C)(C)C4)C2O1 (stereo not drawn)
Response: 2

Query: Which growth inhibition is reported for this compound? O=C1c2ccccc2-c2nc3ccccc3nc21
Response: -17

These measurements were taken from PubChem BioAssay (NCI).
